# SYSTEM_TESTED: hTMEM16Aabc (Homo sapiens, UniProt Q5XXA6, DEL476-501)
# Construct: expressed in transfected cells
# Sequence (Q5XXA6 with tags, fused parts or gaps isoform Q5XXA6-5 DEL539-564): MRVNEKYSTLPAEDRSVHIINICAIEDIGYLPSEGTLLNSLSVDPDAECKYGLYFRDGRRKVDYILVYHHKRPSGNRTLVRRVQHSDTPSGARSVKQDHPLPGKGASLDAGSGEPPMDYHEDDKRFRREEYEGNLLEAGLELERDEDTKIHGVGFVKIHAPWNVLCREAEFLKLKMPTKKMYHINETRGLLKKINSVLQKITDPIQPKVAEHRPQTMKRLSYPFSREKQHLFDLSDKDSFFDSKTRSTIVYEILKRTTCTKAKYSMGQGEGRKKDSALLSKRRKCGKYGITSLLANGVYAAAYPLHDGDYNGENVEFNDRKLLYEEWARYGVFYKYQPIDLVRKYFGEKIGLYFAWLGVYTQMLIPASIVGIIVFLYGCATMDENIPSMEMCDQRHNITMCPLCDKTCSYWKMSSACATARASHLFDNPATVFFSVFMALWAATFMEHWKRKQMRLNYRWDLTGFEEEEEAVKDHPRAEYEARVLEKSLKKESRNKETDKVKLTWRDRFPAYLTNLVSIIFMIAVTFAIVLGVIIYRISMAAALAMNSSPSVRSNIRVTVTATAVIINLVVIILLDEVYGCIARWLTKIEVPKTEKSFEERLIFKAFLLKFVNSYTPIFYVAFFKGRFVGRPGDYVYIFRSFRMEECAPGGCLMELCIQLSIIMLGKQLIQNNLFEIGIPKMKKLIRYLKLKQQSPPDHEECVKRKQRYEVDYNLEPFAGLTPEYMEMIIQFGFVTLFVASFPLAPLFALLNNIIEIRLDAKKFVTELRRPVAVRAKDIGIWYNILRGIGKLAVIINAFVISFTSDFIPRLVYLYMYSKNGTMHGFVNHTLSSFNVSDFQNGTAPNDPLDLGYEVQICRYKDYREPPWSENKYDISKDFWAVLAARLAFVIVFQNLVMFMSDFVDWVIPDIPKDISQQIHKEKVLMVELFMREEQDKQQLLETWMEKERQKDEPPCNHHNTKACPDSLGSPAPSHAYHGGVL
# ASSAY_SUMMARY: Whole-cell patch clamp (QPatch), FRT-hTMEM16Aabc cells
# Assay type: cell-based
# STATED_CONDITIONS: IC50, inhibition of TMEM16Aabc currents, assessed at +90 mV; [Ca2+]i clamped at 415 nM; FRT cells
ENDPOINT_LABEL: pIC50
Recall that pIC50 is obtained by taking minus log10 of the concentration measured in molar.

Given CCc1oc2ccccc2c1C(=O)c1cc(Br)c(O)c(Br)c1 , state its recorded pIC50.
5.52
